These data points were gathered from the supplement of paper PMC12317010.

- ASSAY_EXPLANATION: collision cross section in nitrogen (drift tube, single-field); higher = larger gas-phase ion size;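 further: chemical standards at 10 µM analysed by drift tube IMS-QTOF MS in about 3.95 torr nitrogen, mean of duplicate injections differing ≤1%, mass error below 10 ppm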
- RECORDED_CONDITIONS: ion type: [M+Na]; ion source: ESI; ion mode: Positive
MEASURED_QUANTITY: collision cross section in nitrogen (Å²)
Number in Å², nothing else.

CCS(=O)(=O)CCSP(=O)(OC)OC [Demeton-S-methyl sulfone] = 155.1
CCCCC(CC)COP(=O)(Oc1ccccc1)Oc1ccccc1 (centres undefined) [2-Ethylhexyl diphenyl phosphate] = 200.9

# input Which collision cross section in nitrogen value belongs to Cc1c(C(=O)O)c(O)cc2c1C(=O)c1c(O)c([C@@H]3O[C@H](CO)[C@@H](O)[C@H](O)[C@H]3O)c(O)c(O)c1C2=O [Carminic acid] ?
# output 217.8

# input Which collision cross section in nitrogen value belongs to `CCN(Cc1cccnc1)C(=O)c1cccc(Cl)c1[C@]1(C)C(=O)N(Cc2ccc(OC)cc2OC)c2ccc(Cl)cc21` ?
# output 233.4

====

- ASSAY_EXPLANATION: collision cross section in nitrogen (drift tube, single-field); higher = larger gas-phase ion size
- RECORDED_CONDITIONS: ion type: [M+Na]; ion source: ESI; ion mode: Positive
MEASURED_QUANTITY: collision cross section in nitrogen
Enter the number, and then the unit.

Example entries and their recorded answers appear below.
CC(O)CN(CCN(CC(C)O)CC(C)O)CC(C)O (centres undefined) [1,1′,1′′,1′′′-(Ethylenedinitrilo)tetrakis(2-propanol)] = 168.6 Å²
CN(C)NC(=O)CCC(=O)O [Daminozide] = 142.5 Å²
CCCCCCCCC(=O)NCc1ccc(O)c(OC)c1 [N-Vanillylnonanamide] = 178 Å²

# input Which collision cross section in nitrogen value belongs to COC(=O)CCc1cc(C(C)(C)C)c(O)c(C(C)(C)C)c1 [Methyl 3,5-bis(tert-butyl)-4-hydroxyhydrocinnamate] ?
# output 176.2 Å²

====

Recorded collision cross section in nitrogen by entry
- ASSAY_EXPLANATION: collision cross section in nitrogen (drift tube, single-field); higher = larger gas-phase ion size
- RECORDED_CONDITIONS: ion type: [M-H]; ion source: ESI; ion mode: Negative
Where a name gives a salt, the structure may show the parent alone.
Number in Å², nothing else.

Example entries and their recorded answers appear below.
CC(=O)CC(=O)Nc1ccc(S(=O)(=O)O)cc1 [Potassium 4-acetoacetylaminobenzenesulphonate] = 159.1
Oc1cccnc1 = 114.6
CCCCCCCCC=CCCCCCCCC(=O)OCCO [Poly(oxyethylene) monoleate] = 186.1
CC1=NN(c2cc(Cl)c(S(=O)(=O)O)cc2Cl)C(=O)C1N=Nc1ccc(S(=O)(=O)O)cc1 (stereo not drawn) [C.I. Acid Yellow 17, disodium salt] = 227.6
CCOC(=O)c1cccc(O)c1 [Ethyl 3-hydroxybenzoate] = 137.7

# input Which collision cross section in nitrogen value belongs to `Nc1cc(Cl)c(-c2cc(Cl)c(N)cc2Cl)cc1Cl` ?
# output 167.6

# input Which collision cross section in nitrogen value belongs to `S=C(NC1CCCCC1)NC1CCCCC1` ?
# output 165.7

# input Which collision cross section in nitrogen value belongs to O=[N+]([O-])c1cc([As](=O)(O)O)ccc1O [4-Hydroxy-3-nitrophenylarsonic acid] ?
# output 141.8

# input Which collision cross section in nitrogen value belongs to `Cn1c(=O)cc(Oc2ccc(F)cc2F)c2cnc(NCC(C)(C)O)nc21` ?
# output 193.4

# input Which collision cross section in nitrogen value belongs to CCCC/C=C\CCCCCCCCCC=O [(Z)-11-Hexadecenal] ?
# output 163.6

# input Which collision cross section in nitrogen value belongs to `N#Cc1cc([N+](=O)[O-])ccc1N` ?
# output 125.1

# input Which collision cross section in nitrogen value belongs to CC(C)(C)OC(=O)c1ccc(O)cc1 [tert-Butyl 4-hydroxybenzoate] ?
# output 148.2

# input Which collision cross section in nitrogen value belongs to `CNc1cnn(-c2cccc(C(F)(F)F)c2)c(=O)c1Cl` ?
# output 160.9
